All figures here come from patent US20190345146A1.

This section presents compounds with their documented Ki values.
Target: human norepinephrine transporter (NET) (Homo sapiens, UniProt P23975)
Sequence (P23975 whole entry): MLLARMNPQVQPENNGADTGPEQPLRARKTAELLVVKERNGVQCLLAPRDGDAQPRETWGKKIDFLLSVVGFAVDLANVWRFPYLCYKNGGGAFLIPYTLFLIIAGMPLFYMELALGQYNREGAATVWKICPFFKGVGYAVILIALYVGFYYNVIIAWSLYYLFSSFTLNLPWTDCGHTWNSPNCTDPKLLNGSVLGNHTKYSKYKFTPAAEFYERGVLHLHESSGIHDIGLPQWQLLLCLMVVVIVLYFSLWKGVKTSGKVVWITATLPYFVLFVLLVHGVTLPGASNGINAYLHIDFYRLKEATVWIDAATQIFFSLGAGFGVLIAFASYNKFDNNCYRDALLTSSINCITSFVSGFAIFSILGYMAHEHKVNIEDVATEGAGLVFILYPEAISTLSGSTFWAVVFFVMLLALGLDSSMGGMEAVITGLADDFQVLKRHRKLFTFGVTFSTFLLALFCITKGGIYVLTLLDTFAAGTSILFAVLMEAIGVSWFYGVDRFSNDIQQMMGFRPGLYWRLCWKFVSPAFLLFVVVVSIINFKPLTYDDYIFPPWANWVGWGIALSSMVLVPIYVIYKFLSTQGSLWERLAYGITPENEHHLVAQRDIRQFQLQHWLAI
Assay: Binding assay to human norepinephrine transporter (NET) ([3H]-Nisoxetin)
Conditions: Table 2, dual compounds, human NET enriched membranes, read-out: Ki(nM) NET Hum

What does the data say about its Ki? Entry: CNCCC(Oc1cccc2c1CCCN2C)c1cccs1 (centres unmarked) [Example 1]
500 to 1000 nM

Ok, now CNCCC(Oc1cccc2c1CCN(CC(F)F)C2)c1cccs1 (centres unmarked) [Example 3]
500 to 1000 nM

###

Biological target: human α2δ-1 subunit of Cav2.2 calcium channel (Homo sapiens, UniProt P54289)
Sequence (P54289 25-1103): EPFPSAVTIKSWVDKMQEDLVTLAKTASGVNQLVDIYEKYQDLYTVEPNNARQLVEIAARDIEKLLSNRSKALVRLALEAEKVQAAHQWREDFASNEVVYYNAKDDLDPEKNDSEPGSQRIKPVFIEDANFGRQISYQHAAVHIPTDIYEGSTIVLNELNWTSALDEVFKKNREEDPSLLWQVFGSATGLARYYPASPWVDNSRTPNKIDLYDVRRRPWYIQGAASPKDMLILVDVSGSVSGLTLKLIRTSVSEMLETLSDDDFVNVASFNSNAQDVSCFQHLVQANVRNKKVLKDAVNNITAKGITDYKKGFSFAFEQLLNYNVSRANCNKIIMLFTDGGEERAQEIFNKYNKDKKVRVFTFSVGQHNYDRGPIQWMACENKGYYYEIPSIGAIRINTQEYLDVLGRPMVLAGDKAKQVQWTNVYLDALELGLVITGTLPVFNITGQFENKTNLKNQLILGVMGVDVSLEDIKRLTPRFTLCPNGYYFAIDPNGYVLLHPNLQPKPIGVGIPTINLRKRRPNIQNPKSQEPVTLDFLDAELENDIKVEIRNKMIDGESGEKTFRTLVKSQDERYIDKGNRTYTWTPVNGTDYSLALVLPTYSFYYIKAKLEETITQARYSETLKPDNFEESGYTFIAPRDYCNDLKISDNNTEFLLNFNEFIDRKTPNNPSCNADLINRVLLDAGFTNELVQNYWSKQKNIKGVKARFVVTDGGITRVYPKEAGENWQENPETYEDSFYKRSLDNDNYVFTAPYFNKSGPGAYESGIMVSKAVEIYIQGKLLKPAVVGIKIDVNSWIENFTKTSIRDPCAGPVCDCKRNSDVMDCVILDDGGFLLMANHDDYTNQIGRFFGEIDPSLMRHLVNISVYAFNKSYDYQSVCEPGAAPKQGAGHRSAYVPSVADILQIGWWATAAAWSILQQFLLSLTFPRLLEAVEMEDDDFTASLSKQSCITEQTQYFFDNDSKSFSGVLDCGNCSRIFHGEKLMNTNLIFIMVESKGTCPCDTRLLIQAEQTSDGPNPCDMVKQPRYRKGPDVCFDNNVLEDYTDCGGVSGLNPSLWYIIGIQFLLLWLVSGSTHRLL
Assay: Binding assay to human α2δ-1 subunit of Cav2.2 calcium channel ([3H]-Gabapentin)
Conditions: Table 1, human α2δ-1 enriched membranes, read-out: Ki(nM) alpha2delta Hum
Readout label: Ki

What does the data say about its Ki? Entry: CNCC[C@H](Oc1cccc2c1ccc(=O)n2C)c1cccs1
500 to 3000 nM

Ok, now CNCCC(OCc1cccc2ccncc12)c1ccccc1 (centres unmarked)
≥ 3000 nM

Ok, now CNCC[C@@H](Oc1cccc2ncncc12)c1cccs1
< 100 nM

Ok, now CNCC[C@@H](Oc1cc(F)cc2ncn(C)c(=O)c12)c1cccs1
100 to 500 nM

Ok, now CNCC[C@@H](Oc1cccc2c1CCCN2C)c1cccs1
100 to 500 nM

Ok, now CNCC[C@H](Oc1cccc2c1CCN(C)C2)c1cccs1
100 to 500 nM

Ok, now CCNCC[C@H](Oc1cccc2ncn(C)c(=O)c12)c1cccs1
≥ 3000 nM

###

Target: human α2δ-1 subunit of Cav2.2 calcium channel (Homo sapiens)
Experiment: Binding assay to human α2δ-1 subunit of Cav2.2 calcium channel ([3H]-Gabapentin)
Details: Table 2, dual compounds, human α2δ-1 enriched membranes, read-out: Ki(nM) alpha2delta Hum
Readout label: Ki

CNCCC(Oc1cccc2c1CCCN2C)c1cccs1 (centres unmarked) [Example 1]; 100 to 500 nM

Here's the next entry for you.
Form field - read-out: Ki; system: human α2δ-1 subunit of Cav2.2 calcium channel (Homo sapiens); submitted item: CNCCC(Oc1cccc2c1CCN(CC(F)F)C2)c1cccs1 (centres unmarked) [Example 3]
100 to 500 nM

###

Target: human α2δ-1 subunit of Cav2.2 calcium channel (Homo sapiens)
Experiment: Binding assay to human α2δ-1 subunit of Cav2.2 calcium channel ([3H]-Gabapentin)
Settings: Table 1, human α2δ-1 enriched membranes, read-out: Ki(nM) alpha2delta Hum
This section presents compounds with their documented Ki values.

Recorded results for 5 compounds are shown here.
CNCCC(Oc1cccc2c1CCN(CC(F)F)C2)c1cccs1 (stereo not drawn) [Example 3]; 100 to 500 nM
CCNCC[C@@H](Oc1cccc2cnncc12)c1ccccc1 [Example 13]; 500 to 3000 nM
CCNCCC(Oc1cccc2cnncc12)c1ccccc1 (stereo not drawn) [Example 11]; 500 to 3000 nM
CCNCC[C@@H](Oc1cc(C)cc2c(=O)n(C)cnc12)c1cccs1 [Example 44]; 100 to 500 nM
CCNCC[C@@H](Oc1cccc2ncncc12)c1cccs1 [Example 39]; 100 to 500 nM

Here's the next entry for you.
What does the data say about its Ki? Entry: CCNCC[C@@H](Oc1cccc2cnncc12)c1cccs1 [Example 14]
< 100 nM

###

Biological target: human α2δ-1 subunit of Cav2.2 calcium channel (Homo sapiens)
Assay: Binding assay to human α2δ-1 subunit of Cav2.2 calcium channel ([3H]-Gabapentin)
Conditions: Table 1, human α2δ-1 enriched membranes, read-out: Ki(nM) alpha2delta Hum
Readout label: Ki

Recorded results for 8 compounds are shown here.
CNCCC(OCc1cccc2ncccc12)c1ccccc1 (stereo not shown); ≥ 3000 nM
CCNCC[C@@H](Oc1cccc2c(=O)n(C)ccc12)c1cccs1; < 100 nM
CNCCC(OCc1cccc2ccncc12)c1cccs1 (stereo not shown); ≥ 3000 nM
CNCCC(Oc1cccc2c(=O)n(C)cnc12)c1cccs1 (stereo not shown); 100 to 500 nM
CNCCC(Oc1cccc2c(=O)n(C)ccc12)c1cccs1 (stereo not shown); 100 to 500 nM
CNCCC(Oc1cccc2cnncc12)c1cccs1 (stereo not shown); < 100 nM
CCNCCC(Oc1cccc2c1CCN(C)C2)c1cccs1 (stereo not shown); < 100 nM
CNCC[C@H](Oc1cccc2c1CCCN2C)c1cccs1; 500 to 3000 nM

What does the data say about its Ki? Entry: CNCCC(Oc1cccc2c1CCN(C)C2)c1cccs1 (stereo not shown)
< 100 nM

Ok, now CNCC[C@@H](Oc1cccc2ncn(C)c(=O)c12)c1ccsc1
100 to 500 nM
